pEC50 by entry:
Biological target: GFRα1-RET (Homo sapiens, UniProt P56159)
Construct: expressed in transfected cells; host or cells: MG87 murine fibroblast
Sequence (P56159 25-429 limits assumed): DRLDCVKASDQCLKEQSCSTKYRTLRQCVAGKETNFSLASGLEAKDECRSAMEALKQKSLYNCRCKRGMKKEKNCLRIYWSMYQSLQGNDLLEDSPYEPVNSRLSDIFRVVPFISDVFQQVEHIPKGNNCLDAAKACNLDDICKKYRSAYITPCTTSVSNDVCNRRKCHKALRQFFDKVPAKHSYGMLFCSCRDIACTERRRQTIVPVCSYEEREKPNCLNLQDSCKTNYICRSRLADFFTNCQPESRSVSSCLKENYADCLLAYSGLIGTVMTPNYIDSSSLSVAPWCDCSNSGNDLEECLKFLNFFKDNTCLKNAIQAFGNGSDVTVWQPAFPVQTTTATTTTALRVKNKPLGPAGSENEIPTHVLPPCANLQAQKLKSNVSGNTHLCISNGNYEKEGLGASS
Sequence (P07949 29-1114 partner): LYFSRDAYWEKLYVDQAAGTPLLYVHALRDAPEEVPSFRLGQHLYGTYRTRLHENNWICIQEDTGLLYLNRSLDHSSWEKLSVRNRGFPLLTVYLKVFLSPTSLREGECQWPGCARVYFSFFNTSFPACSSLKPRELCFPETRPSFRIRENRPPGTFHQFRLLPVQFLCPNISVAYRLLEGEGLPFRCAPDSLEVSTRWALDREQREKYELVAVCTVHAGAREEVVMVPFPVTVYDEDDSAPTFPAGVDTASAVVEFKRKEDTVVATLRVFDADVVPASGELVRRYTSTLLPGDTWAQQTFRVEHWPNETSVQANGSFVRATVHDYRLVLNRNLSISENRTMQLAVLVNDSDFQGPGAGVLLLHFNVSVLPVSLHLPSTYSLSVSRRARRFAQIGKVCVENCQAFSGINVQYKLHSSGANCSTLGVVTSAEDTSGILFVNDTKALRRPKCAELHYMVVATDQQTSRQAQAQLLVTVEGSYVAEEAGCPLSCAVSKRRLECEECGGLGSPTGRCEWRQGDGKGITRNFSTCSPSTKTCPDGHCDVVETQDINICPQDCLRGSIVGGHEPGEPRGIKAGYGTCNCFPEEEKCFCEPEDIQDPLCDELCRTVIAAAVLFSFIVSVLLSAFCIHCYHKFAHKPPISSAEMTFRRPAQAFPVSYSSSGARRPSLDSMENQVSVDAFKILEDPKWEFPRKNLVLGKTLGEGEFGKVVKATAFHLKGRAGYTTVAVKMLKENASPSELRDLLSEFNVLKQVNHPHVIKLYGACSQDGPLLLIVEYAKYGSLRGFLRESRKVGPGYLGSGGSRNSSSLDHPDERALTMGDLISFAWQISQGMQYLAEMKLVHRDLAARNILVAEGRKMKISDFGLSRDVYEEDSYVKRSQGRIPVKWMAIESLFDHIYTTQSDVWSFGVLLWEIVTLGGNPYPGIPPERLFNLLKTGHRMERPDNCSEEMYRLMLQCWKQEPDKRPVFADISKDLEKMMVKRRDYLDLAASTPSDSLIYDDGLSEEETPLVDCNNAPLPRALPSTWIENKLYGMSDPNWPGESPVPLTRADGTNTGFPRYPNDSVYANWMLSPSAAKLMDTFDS
Assay: Luciferase assay: activation of Elk1 signaling in reporter-gene cells expressing GFRα1-RET (MG87 murine fibroblast stably transfected with PathDetect Elk-1, GFRα1, and RET)
Format: cell-based
Settings: Table 4; MG87 murine fibroblasts with PathDetect Elk-1, GFRα1, RET; 6 concentrations, duplicate, two times independently; agonist/activator activity; read-out: Luciferase Assay EC50
pEC50: −log10 of the molar value.

These recorded examples may help you get a feel for the data.
Reported pEC50 ( CCCN(C)S(=O)(=O)c1ccc(OC)c(N2CCN(C(=O)c3cc(F)c(F)cc3Cl)CC2)c1 ) = 5.30 to 6.00

Reported pEC50 ( COc1ccc(S(=O)(=O)N2CCC(Cc3ccccc3)CC2)cc1N1CCN(C(=O)c2ncc(F)cc2Cl)CC1 ) = 5.00 to 5.30

Reported pEC50 ( COc1ccc(S(=O)(=O)N2CCCC(Cc3ccccc3)C2)cc1N1CCN(C(=O)c2ccc(F)cc2Cl)CC1 (stereo not drawn) ) = 5.30 to 6.00

Reported pEC50 ( COc1ccc(S(=O)(=O)N2CCC(Cc3ccccc3)CC2)cc1N1CCN(C(=O)c2cc(F)c(F)cc2Cl)CC1 ) = > 6.00

Reported pEC50 ( CCCN(C)S(=O)(=O)c1ccc(OC)c(N2CCN(C(=O)c3ccc(F)cc3Cl)CC2)c1 ) = 5.30 to 6.00

Reported pEC50 ( COc1ccc(S(=O)(=O)N(C)Cc2cccc(Cl)c2)cc1N1CCN(C(=O)c2ccc(F)cc2Cl)CC1 ) = 5.30 to 6.00

Reported pEC50 ( CCCN(C)S(=O)(=O)c1ccc(OCc2ccccc2)c(N2CCN(C(=O)c3ccc(F)cc3C(F)(F)F)CC2)c1 ) = 5.30 to 6.00

Reported pEC50 ( COc1ccc(S(=O)(=O)N(C)C2(C)COC2)cc1N1CCN(C(=O)c2ccc(F)cc2Cl)CC1 ) = 4.30 to 5.00

Reported pEC50 ( COc1ccc(S(=O)(=O)N2CCC(c3ccccc3)CC2)cc1N1CCN(C(=O)c2ccc(F)cc2Cl)CC1 ) = > 6.00

Reported pEC50 ( COc1ccc(S(=O)(=O)N(C)C2CCCCC2)cc1N1CCN(C(=O)c2ccc(F)cc2Cl)CC1 ) = 5.30 to 6.00

More entries:
Reported pEC50 ( O=C(c1ccc(F)cc1Cl)N1CCN(c2cc(S(=O)(=O)N3CCC(F)CC3)cc(Cl)c2O)CC1 ) = 5.30 to 6.00

Reported pEC50 ( COc1ccc(S(=O)(=O)N2CCN(CC(C)c3ccccc3)CC2)cc1N1CCN(C(=O)c2ccc(F)cc2Cl)CC1 (racemic) ) = 5.30 to 6.00

Reported pEC50 ( COc1ccc(S(=O)(=O)N(C)Cc2ccc(F)cc2)cc1N1CCN(C(=O)c2ccc(F)cc2Cl)CC1 ) = 5.00 to 5.30

Reported pEC50 ( COc1ccc(S(=O)(=O)N2CCC(c3ccc(F)cc3)CC2)cc1N1CCN(C(=O)c2ccc(F)cc2Cl)CC1 ) = > 6.00

Reported pEC50 ( COc1ccc(S(=O)(=O)N(C)Cc2ccccc2)cc1N1CCN(C(=O)c2ccc(F)cc2Cl)CC1 ) = 4.30 to 5.00

###

EC50 by entry:
Target: GFRα1-RET (Homo sapiens, UniProt P56159)
Construct: expressed in transfected cells; host or cells: MG87 murine fibroblast
Experiment: Luciferase assay: activation of Elk1 signaling in reporter-gene cells expressing GFRα1-RET (MG87 murine fibroblast stably transfected with PathDetect Elk-1, GFRα1, and RET)
Assay type: cell-based
Conditions: Table 6, comparison with comparative compounds; values for 001, 009, 010 reported from Table 4; MG87 GFRα1-RET cells; read-out: Luciferase Assay EC50

These recorded examples may help you get a feel for the data.
Entry COc1ccc(S(=O)(=O)N2CCC(Cc3ccccc3)CC2)cc1N1CCN(C(=O)c2cc(F)c(F)cc2Cl)CC1 : EC50 on GFRα1-RET (Homo sapiens, UniProt P56159) = < 1 µM

Entry COc1ccc(S(=O)(=O)N2CCC(Cc3ccccc3)CC2)cc1N1CCN(C(=O)c2cc(F)ccc2C(F)(F)F)CC1 [Compound C01, reference compound] : EC50 on GFRα1-RET (Homo sapiens, UniProt P56159) = > 50 µM

Entry COc1ccc(S(=O)(=O)N2CCC(Cc3ccccc3)CC2)cc1N1CCN(C(=O)c2ccc(F)cc2C(F)F)CC1 : EC50 on GFRα1-RET (Homo sapiens, UniProt P56159) = 1 to 5 µM

Entry CCN(CC)S(=O)(=O)c1ccc(OC)c(N2CCN(C(=O)c3cc(F)ccc3C(F)(F)F)CC2)c1 [Compound C02, reference compound] : EC50 on GFRα1-RET (Homo sapiens, UniProt P56159) = > 50 µM

Now look at this entry.
Entry CCN(CC)S(=O)(=O)c1ccc(OC)c(N2CCN(C(=O)c3ccc(F)cc3Cl)CC2)c1 : EC50 on GFRα1-RET (Homo sapiens, UniProt P56159) = 5 to 10 µM

###

Target: GFRα1-RET (Homo sapiens)
Construct: expressed in transfected cells; host or cells: MG87 murine fibroblast
Assay: Luciferase assay: activation of Elk1 signaling in reporter-gene cells expressing GFRα1-RET (MG87 murine fibroblast stably transfected with PathDetect Elk-1, GFRα1, and RET)
Type: cell-based
Conditions: text statement on Table 6 results, GFRα1-RET luciferase assay; read-out: EC50
Assay metric: EC50

Reported EC50 ( CCN(CC)S(=O)(=O)c1ccc(OC)c(N2CCN(C(=O)c3ccc(F)cc3Cl)CC2)c1 ) = < 10 µM

More entries:
Reported EC50 ( COc1ccc(S(=O)(=O)N2CCC(Cc3ccccc3)CC2)cc1N1CCN(C(=O)c2ccc(F)cc2C(F)F)CC1 ) = < 10 µM

###

EC50 by entry:
Target: GFRα1-RET (Homo sapiens, UniProt P56159)
Construct: expressed in transfected cells; host or cells: MG87 murine fibroblast
Assay: Luciferase assay: activation of Elk1 signaling in reporter-gene cells expressing GFRα1-RET (MG87 murine fibroblast stably transfected with PathDetect Elk-1, GFRα1, and RET)
Format: cell-based
Conditions: Table 4; MG87 murine fibroblasts with PathDetect Elk-1, GFRα1, RET; 6 concentrations, duplicate, two times independently; agonist/activator activity; read-out: Luciferase Assay EC50

Reported EC50 ( COc1ccc(S(=O)(=O)N2CCCC2)cc1N1CCN(C(=O)c2ccc(Cl)cc2Cl)CC1 [Compound 003] ) = 10 to 50 µM

Reported EC50 ( COc1ccc(S(=O)(=O)N2CCC(=Cc3ccccc3)CC2)cc1N1CCN(C(=O)c2ccc(F)cc2Cl)CC1 [Compound 023] ) = < 1 µM

Reported EC50 ( CCCN(C)S(=O)(=O)c1ccc(OC)c(N2CCN(C(=O)c3ccc(F)cc3C(F)F)CC2)c1 [Compound 006] ) = 1 to 5 µM

More entries:
Reported EC50 ( CN(CC1CC1)S(=O)(=O)c1cc(Cl)c(O)c(N2CCN(C(=O)c3ccc(F)cc3Cl)CC2)c1 [Compound 059] ) = < 1 µM

Reported EC50 ( COc1ccc(S(=O)(=O)NC2C3CC4CC(C3)CC2C4)cc1N1CCN(C(=O)c2ccc(F)cc2Cl)CC1 (stereo not drawn) [Compound 034] ) = 5 to 10 µM

Reported EC50 ( COc1ccc(S(=O)(=O)N2CCCC2)cc1N1CCN(C(=O)c2ccc(F)cc2Cl)CC1 [Compound 004] ) = 1 to 5 µM

Reported EC50 ( CCN(CC)S(=O)(=O)c1ccc(OC)c(N2CCN(C(=O)c3cc(F)c(F)cc3Cl)CC2)c1 [Compound 002] ) = 5 to 10 µM

Reported EC50 ( COc1ccc(S(=O)(=O)N2CCC(Cc3ccccc3)CC2)cc1N1CCN(C(=O)c2ccc(F)cc2C(F)F)CC1 [Compound 010] ) = 1 to 5 µM

Reported EC50 ( COc1ccc(S(=O)(=O)N2CCC(Cc3ccccc3)C2)cc1N1CCN(C(=O)c2ccc(F)cc2Cl)CC1 (stereo not drawn) [Compound 029] ) = 5 to 10 µM

Reported EC50 ( COc1ccc(S(=O)(=O)N2CCN(Cc3ccccc3)CC2)cc1N1CCN(C(=O)c2ccc(F)cc2Cl)CC1 [Compound 013] ) = 5 to 10 µM

Reported EC50 ( Cc1cc(S(=O)(=O)N2CCC(c3ccccc3)CC2)cc(N2CCN(C(=O)c3ccc(F)cc3Cl)CC2)c1O [Compound 055] ) = < 1 µM

Reported EC50 ( CCCN(C)S(=O)(=O)c1cc2c(c(N3CCN(C(=O)c4ccc(F)cc4C(F)(F)F)CC3)c1)OCC2 [Compound 043] ) = 1 to 5 µM

Reported EC50 ( COc1ccc(S(=O)(=O)NC2(C)CCCCC2)cc1N1CCN(C(=O)c2ccc(F)cc2Cl)CC1 [Compound 035] ) = 1 to 5 µM

Reported EC50 ( CC(C)(C)NS(=O)(=O)c1cc(Cl)c(O)c(N2CCN(C(=O)c3ccc(F)cc3Cl)CC2)c1 [Compound 058] ) = < 1 µM

Reported EC50 ( COc1ccc(S(=O)(=O)N2CCCC(OCc3ccccc3)C2)cc1N1CCN(C(=O)c2ccc(F)cc2Cl)CC1 (stereo not drawn) [Compound 038] ) = 1 to 5 µM
